Target: UniProtKB Q16769
Assay: Inhibitor assay for glutaminyl cyclase activity (fluorometric, H-Gln-βNA / H-Gln-AMC)
Type: biochemical
Conditions: compound from preparative synthesis, purified; read-out: IC50 hQC
Threshold check on IC50: strictly below 0.6 µM is TRUE; on or above 0.6 µM is FALSE.

compound | category
COc1ccc(C2C(c3ccc(O)cc3)=C(O)C(=O)N2CCCn2ccnc2)cc1 (centres unmarked) | TRUE
CCCCCC1=C(O)C(=O)N(CCCn2ccnc2)C1c1ccco1 (centres unmarked) | FALSE
CCCCCC1=C(O)C(=O)N(CCCn2ccnc2)C1c1cccc(O)c1 (centres unmarked) | FALSE
CCCC(=O)C1=C(O)C(=O)N(c2ccc3[nH]cnc3c2)C1c1ccc(C)o1 (centres unmarked) | TRUE
Cc1ccc(C2C(c3ccc(O)cc3)=C(O)C(=O)N2CCCn2ccnc2)cc1 (centres unmarked) | TRUE
CCCCCC1=C(O)C(=O)N(CCCn2ccnc2)C1c1ccc(OC)cc1 (centres unmarked) | FALSE
O=C1C(O)=C(c2c[nH]c3ccccc23)C(C2CCC=CO2)N1CCCn1ccnc1 (centres unmarked) | FALSE
O=C1C(O)=C(c2ccccc2)C(c2cccc(O)c2)N1CCCn1ccnc1 (centres unmarked) | FALSE
CCCCCC1=C(O)C(=O)N(CCCn2ccnc2)C1c1ccc(C)o1 (centres unmarked) | FALSE
CC(=O)C1=C(O)C(=O)N(c2ccc3[nH]cnc3c2)C1c1ccc2nonc2c1 (centres unmarked) | TRUE
O=C1C(O)=C(c2c[nH]c3ccccc23)C(c2cccc(Cl)c2)N1CCCn1ccnc1 (centres unmarked) | TRUE
O=C1C(O)=C(c2ccccc2)C(c2cc(F)cc(F)c2F)N1c1ccc2[nH]cnc2c1 (centres unmarked) | TRUE
CC(C)CC(=O)C1=C(O)C(=O)N(c2ccc3[nH]cnc3c2)C1c1ccc2cccc(O)c2n1 (centres unmarked) | TRUE
O=C(C1=C(O)C(=O)N(c2ccc3[nH]cnc3c2)C1c1ccc2nonc2c1)C1CC1 (centres unmarked) | TRUE
O=C(C1=C(O)C(=O)N(c2ccc3[nH]cnc3c2)C1c1ccc2cccc(O)c2n1)C1CC1 (centres unmarked) | TRUE

###

Target: hQC (Homo sapiens, UniProt Q16769)
Sequence (Q16769 29-361): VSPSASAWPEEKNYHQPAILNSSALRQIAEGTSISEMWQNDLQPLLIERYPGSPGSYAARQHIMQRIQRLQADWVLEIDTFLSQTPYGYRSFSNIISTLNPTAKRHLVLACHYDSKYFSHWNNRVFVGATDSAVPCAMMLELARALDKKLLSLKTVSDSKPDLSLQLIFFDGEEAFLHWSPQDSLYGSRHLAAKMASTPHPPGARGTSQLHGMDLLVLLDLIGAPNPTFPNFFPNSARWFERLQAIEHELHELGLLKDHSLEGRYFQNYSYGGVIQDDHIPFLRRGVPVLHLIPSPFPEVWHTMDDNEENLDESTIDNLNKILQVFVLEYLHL
Test: Inhibitor assay for glutaminyl cyclase activity (fluorometric, H-Gln-βNA / H-Gln-AMC)
Format: biochemical
Details: read-out: IC50
Doc: threshold 400 nM (exclusive). Items with IC50 beneath it return true; others return false.

molecule | category
CCCCCC1=C(O)C(=O)N(CCCn2ccnc2)C1CCC (centres unmarked) | true
O=C(C1=C(O)C(=O)N(c2ccc3[nH]cnc3c2)C1c1ccc(Cl)c(C(F)(F)F)c1)c1cc2ccccc2s1 (centres unmarked) | false
O=C1C(O)=C(c2c[nH]c3ccccc23)C(c2ccccc2F)N1CCCn1ccnc1 (centres unmarked) | true
CC(C)C1=C(O)C(=O)N(c2ccc3[nH]cnc3c2)C1C1COC(C)(C)O1 (centres unmarked) | true
CCCC(=O)C1=C(O)C(=O)N(c2ccc3[nH]cnc3c2)C1c1ccc(CO)o1 (centres unmarked) | false
CC1=C(O)C(=O)N(c2ccc3[nH]cnc3c2)C1c1ccc2nonc2c1 (centres unmarked) | false
Cc1ccc(C2C(C(=O)CC(C)C)=C(O)C(=O)N2c2ccc3[nH]cnc3c2)o1 (centres unmarked) | false

###

Target: hQC (Homo sapiens)
Assay: Inhibitor assay for glutaminyl cyclase activity (fluorometric, H-Gln-βNA / H-Gln-AMC)
Assay type: biochemical
Conditions: read-out: IC50
Consider the following compounds and their measured IC50 readings.
recorded metric: IC50 (µM)

compound | recorded metric | assay value
O=C(O)CC1=C(O)C(=O)N(c2ccc3[nH]cnc3c2)C1c1cccc2cccnc12 (centres unmarked) [Compound 354] | IC50 | 8.77
CCC1=C(O)C(=O)N(CCCn2ccnc2)C1c1ccc(CO)o1 (centres unmarked) [Compound 234] | IC50 | 1.3
O=C1C(O)=C(c2c[nH]c3ccccc23)C(c2ccc3nsnc3c2)N1c1ccc2[nH]cnc2c1 (centres unmarked) [Compound 457] | IC50 | 0.004
CCCCC1C(c2ccc(O)cc2)=C(O)C(=O)N1CCCn1ccnc1 (centres unmarked) [Compound 177] | IC50 | 0.04
CC(C)CC(=O)C1=C(O)C(=O)N(c2ccc3[nH]cnc3c2)C1c1cn(C)c2ccccc12 (centres unmarked) [Compound 278] | IC50 | 5.35
O=C1C(O)=C(c2c[nH]c3ccccc23)C(c2cccc3cccnc23)N1c1ccc2[nH]cnc2c1 (centres unmarked) [Compound 281] | IC50 | 5.89
CC(C)(C)C(=O)C1=C(O)C(=O)N(c2ccc3[nH]cnc3c2)C1c1cc(Br)ccc1F (centres unmarked) [Compound 396] | IC50 | 4.45
CC(C)C1=C(O)C(=O)N(CCCn2ccnc2)C1c1ccccc1O (centres unmarked) [Compound 60] | IC50 | 9.4
